- target.system: recombinant human DR 5 receptor Fc fusion protein (R&D Systems) (human)
- Sequence (chain, as listed by the source): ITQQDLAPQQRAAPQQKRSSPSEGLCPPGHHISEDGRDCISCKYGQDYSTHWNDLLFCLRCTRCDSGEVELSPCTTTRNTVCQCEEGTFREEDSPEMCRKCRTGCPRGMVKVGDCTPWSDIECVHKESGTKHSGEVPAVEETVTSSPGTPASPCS
- test.details: SPR (Biacore), captured DR5/Fc
value.type: Kd (nM)
Give bare numbers, in nM.

8b6b (=A1H) DR 5 ATRIMER (designed binder, Homotrimer (ATRIMER) of this chain; one protomer is given., also called 029-15.A1H; not shown: C-terminal tag (His/Myc of pANA4, HA-StrepII of pANA10, or that of pANA19)) EPPTQKPKKIVNAKKDVVNTKMFEELKSRLDTLAQEVALLKEQQALQTVCLKGTKVHMKCFLAFTQTKTFHEASEDCISRGGTLSTPQTGSENDALYEYLRQSVGNEAEIWLGLNRAVLRPRWVDMTGARIAYKNWETEITAQPDGGWVLGGKNCAVLSGAANGKWFDKRCRDQLPYICQFGIV :: 39.1
9b3d (=B3D) DR 5 ATRIMER (designed binder, Homotrimer (ATRIMER) of this chain; one protomer is given., also called 029-15.B3D; not shown: C-terminal tag (His/Myc of pANA4, HA-StrepII of pANA10, or that of pANA19)) EPPTQKPKKIVNAKKDVVNTKMFEELKSRLDTLAQEVALLKEQQALQTVCLKGTKVHMKCFLAFTQTKTFHEASEDCISRGGTLSTPQTGSENDALYEYLRQSVGNEAEIWLGLNELRTDGLWVDMTGARIAYKNWETEITAQPDGGVMRRSENCAVLSGAANGKWFDKRCRDQLPYICQFGIV :: 899
2a1a (=B9F) DR 5 ATRIMER (designed binder, Homotrimer (ATRIMER) of this chain; one protomer is given., also called 029-15.B9F; not shown: C-terminal tag (His/Myc of pANA4, HA-StrepII of pANA10, or that of pANA19)) EPPTQKPKKIVNAKKDVVNTKMFEELKSRLDTLAQEVALLKEQQALQTVCLKGTKVHMKCFLAFTQTKTFHEASEDCISRGGTLSTPQTGSENDALYEYLRQSVGNEAEIWLGLNKRVWYRGWVDMTGARIAYKNWETEITAQPDGGMRRRRENCAVLSGAANGKWFDKRCRDQLPYICQFGIV :: 42.8

Next binder, please.
Which Kd value belongs to 1a7b (=A8G) DR 5 ATRIMER (designed binder, Homotrimer (ATRIMER) of this chain; one protomer is given., also called 029-15.A8G; not shown: C-terminal tag (His/Myc of pANA4, HA-StrepII of pANA10, or that of pANA19)) EPPTQKPKKIVNAKKDVVNTKMFEELKSRLDTLAQEVALLKEQQALQTVCLKGTKVHMKCFLAFTQTKTFHEASEDCISRGGTLSTPQTGSENDALYEYLRQSVGNEAEIWLGLNRAWLRPRWVDMTGARIAYKNWETEITAQPDGGTLVSGENCAVLSGAANGKWFDKRCRDQLPYICQFGIV ?
15.6

The reported measurements were obtained from patent US20110086770A1.
